Each entry below carries its recorded MIC.
- Test system: Staphylococcus aureus
- Assay notes: Antibacterial activity against Staphylococcus aureus after 24 hrs by agar dilution method
- Format: functional
Write down the numeric answer in mg/L and omit the unit.

[[record]]
smiles_text = "CCn1cc(C(=O)O)c(=O)c2ccc(C)nc21"
readout_unit = "mg/L"
quantitative_readout = 0.12

[[record]]
smiles_text = "CCn1cc(C(=O)NNC(N)=S)c(=O)c2ccc(C)nc21"
readout_unit = "mg/L"
quantitative_readout = 0.12

[[record]]
smiles_text = "O=C(O)c1cn(C2CC2)c2cc(N3CCNCC3)c(F)cc2c1=O"
readout_unit = "mg/L"
quantitative_readout = 0.12

[[record]]
smiles_text = "CCn1cc(-c2n[nH]c(=S)n2-c2nc3ccccc3[nH]c2=O)c(=O)c2ccc(C)nc21"
readout_unit = "mg/L"
quantitative_readout = 0.06

[[record]]
smiles_text = "CCn1cc(C(=O)NN)c(=O)c2ccc(C)nc21"
readout_unit = "mg/L"
quantitative_readout = 0.12


Hello, please tell me recorded MIC for this one: `CCOC(=O)c1cn(CC)c2nc(C)ccc2c1=O`
0.25

Kindly indicate its recorded MIC. Item: `CCn1cc(C(=O)N/N=c2\[nH]c3ccccc3[nH]c2=O)c(=O)c2ccc(C)nc21`
1

Answer with the recorded MIC of `CCn1cc(C(=O)NNC(=S)/N=c2\[nH]c3ccccc3[nH]c2=O)c(=O)c2ccc(C)nc21` only.
1

Answer with the recorded MIC of `CC1(C)S[C@@H]2[C@H](NC(=O)[C@H](N)c3ccc(O)cc3)C(=O)N2[C@H]1C(=O)O` only.
0.5

Complete the entry with MIC for `CCn1cc(-c2nn(-c3nc4ccccc4[nH]c3=O)c(=S)o2)c(=O)c2ccc(C)nc21`
0.06

###

- Tested on: Salmonella paratyphi
- Assay notes: Antibacterial activity against Salmonella paratyphi after 5 days by microdilution method
- Assay type: functional, Salmonella enterica subsp. enterica serovar Paratyphi A
- Measurement setup: Salmonella enterica, 120 h
# MIC annotations
Please give a number only; it is taken to be in µg/mL.

[[record]]
smiles_text = "CC1(C)S[C@@H]2[C@H](NC(=O)[C@H](N)c3ccc(O)cc3)C(=O)N2[C@H]1C(=O)O"
readout_unit = "µg/mL"
quantitative_readout = 2

[[record]]
smiles_text = "CCn1cc(C(=O)NNC(=S)/N=c2\\[nH]c3ccccc3[nH]c2=O)c(=O)c2ccc(C)nc21"
readout_unit = "µg/mL"
quantitative_readout = 2

[[record]]
smiles_text = "O=C(O)c1cn(C2CC2)c2cc(N3CCNCC3)c(F)cc2c1=O"
readout_unit = "µg/mL"
quantitative_readout = 0.25

[[record]]
smiles_text = "CCn1cc(-c2n[nH]c(=S)n2-c2nc3ccccc3[nH]c2=O)c(=O)c2ccc(C)nc21"
readout_unit = "µg/mL"
quantitative_readout = 1

[[record]]
smiles_text = "CCn1cc(C(=O)NNC(N)=S)c(=O)c2ccc(C)nc21"
readout_unit = "µg/mL"
quantitative_readout = 0.5

[[record]]
smiles_text = "CCn1cc(C(=O)NN)c(=O)c2ccc(C)nc21"
readout_unit = "µg/mL"
quantitative_readout = 0.5


For Salmonella paratyphi, give MIC of the listed compound: `CCn1cc(C(=O)O)c(=O)c2ccc(C)nc21`
1

Write down measured MIC (Salmonella paratyphi) for this compound. `CCn1cc(-c2nn(-c3nc4ccccc4[nH]c3=O)c(=S)o2)c(=O)c2ccc(C)nc21`
1

Retrieve MIC on Salmonella paratyphi; query `CCOC(=O)c1cn(CC)c2nc(C)ccc2c1=O`
1

###

- Test system: Escherichia coli
- Assay notes: Antibacterial activity against Escherichia coli at 10 ug/disk after 24 hrs by agar plate disk diffusion method
- Assay type: functional
- Measurement setup: read-out: DIZ
Value type: zone of inhibition at 10 µg/disc (mm)
All answers are understood in mm, so give the number only.

A selection of reference data follows.
[[record]]
compound = "O=C(O)c1cn(C2CC2)c2cc(N3CCNCC3)c(F)cc2c1=O [CIPROFLOXACIN]"
target = "Escherichia coli"
value_type = "zone of inhibition at 10 µg/disc"
readout_unit = "mm"
quantitative_readout = 28

[[record]]
compound = "CCn1cc(C(=O)NNC(=S)/N=c2\\[nH]c3ccccc3[nH]c2=O)c(=O)c2ccc(C)nc21"
target = "Escherichia coli"
value_type = "zone of inhibition at 10 µg/disc"
readout_unit = "mm"
quantitative_readout = 19

[[record]]
compound = "CCn1cc(C(=O)O)c(=O)c2ccc(C)nc21 [NALIDIXIC ACID]"
target = "Escherichia coli"
value_type = "zone of inhibition at 10 µg/disc"
readout_unit = "mm"
quantitative_readout = 26

[[record]]
compound = "CCn1cc(-c2nn(-c3nc4ccccc4[nH]c3=O)c(=S)o2)c(=O)c2ccc(C)nc21"
target = "Escherichia coli"
value_type = "zone of inhibition at 10 µg/disc"
readout_unit = "mm"
quantitative_readout = 25

[[record]]
compound = "CCn1cc(C(=O)NNC(N)=S)c(=O)c2ccc(C)nc21"
target = "Escherichia coli"
value_type = "zone of inhibition at 10 µg/disc"
readout_unit = "mm"
quantitative_readout = 29


Retrieve zone of inhibition at 10 µg/disc measured for `CCn1cc(C(=O)NN)c(=O)c2ccc(C)nc21` and print it.
39

###

- Test system: Pseudomonas aeruginosa
- Assay notes: Antibacterial activity against Pseudomonas aeruginosa at 10 ug/disk after 24 hrs by agar plate disk diffusion method
- Type: functional
- Measurement setup: read-out: DIZ
Decide by zone of inhibition at 10 µg/disc: equal to or exceeding 20 mm means class 1, less means class 0.

# example entries with known answers
[[record]]
molecule = "CC1(C)S[C@@H]2[C@H](NC(=O)[C@H](N)c3ccc(O)cc3)C(=O)N2[C@H]1C(=O)O [AMOXICILLIN]"
class_label = "class 1"

[[record]]
molecule = "CCOC(=O)c1cn(CC)c2nc(C)ccc2c1=O"
class_label = "class 0"


# check: zone of inhibition at 10 µg/disc of `CCn1cc(C(=O)N/N=c2\[nH]c3ccccc3[nH]c2=O)c(=O)c2ccc(C)nc21` is greater than or equal to 20 mm
class 0

Hi team, for `CCn1cc(C(=O)NNC(=S)/N=c2\[nH]c3ccccc3[nH]c2=O)c(=O)c2ccc(C)nc21` , is the recorded zone of inhibition at 10 µg/disc at or above 20 mm?
class 0

Determine whether this molecule has zone of inhibition at 10 µg/disc no lower than 20 mm: `CCn1cc(C(=O)NNC(N)=S)c(=O)c2ccc(C)nc21`
class 1

###

# maps each entry to its zone of inhibition at 10 µg/disc
- Test system: Escherichia coli
- Assay notes: Antibacterial activity against Escherichia coli at 10 ug/disk after 24 hrs by agar plate disk diffusion method
- Assay type: functional
- Measurement setup: read-out: DIZ
Reply with the number, then its unit.

// known answers, use as guide
[[record]]
smiles_text = "CC1(C)S[C@@H]2[C@H](NC(=O)[C@H](N)c3ccc(O)cc3)C(=O)N2[C@H]1C(=O)O"
result = "25 mm"

[[record]]
smiles_text = "CCn1cc(-c2n[nH]c(=S)n2-c2nc3ccccc3[nH]c2=O)c(=O)c2ccc(C)nc21"
result = "28 mm"


Check the records and state zone of inhibition at 10 µg/disc for `CCOC(=O)c1cn(CC)c2nc(C)ccc2c1=O`
22 mm

Supply reported zone of inhibition at 10 µg/disc belonging to this molecule: `CCn1cc(C(=O)N/N=c2\[nH]c3ccccc3[nH]c2=O)c(=O)c2ccc(C)nc21`
22 mm

###

Collected zone of inhibition at 10 µg/disc values appear next to each entry.
- System: Pseudomonas aeruginosa
- Assay notes: Antibacterial activity against Pseudomonas aeruginosa at 10 ug/disk after 24 hrs by agar plate disk diffusion method
- Assay type: functional
- Measurement setup: read-out: DIZ
Record the value in mm, omitting the unit from your answer.

Here is how some compounds turned out for zone of inhibition at 10 µg/disc.
[[record]]
compound = "CCn1cc(-c2n[nH]c(=S)n2-c2nc3ccccc3[nH]c2=O)c(=O)c2ccc(C)nc21"
quantitative_readout = 29

[[record]]
compound = "O=C(O)c1cn(C2CC2)c2cc(N3CCNCC3)c(F)cc2c1=O [CIPROFLOXACIN]"
quantitative_readout = 23

[[record]]
compound = "CCn1cc(-c2nn(-c3nc4ccccc4[nH]c3=O)c(=S)o2)c(=O)c2ccc(C)nc21"
quantitative_readout = 23

[[record]]
compound = "CCn1cc(C(=O)O)c(=O)c2ccc(C)nc21 [NALIDIXIC ACID]"
quantitative_readout = 22


Let us move to another entry and its zone of inhibition at 10 µg/disc.
Entry `CCn1cc(C(=O)NN)c(=O)c2ccc(C)nc21` needs its zone of inhibition at 10 µg/disc filled in; supply it.
39

Data provenance: ChEMBL document CHEMBL3616412
